These entries and their values trace back to PubChem BioAssay (NCI).

Test system: RPMI-8226 leukemia
test method notes: NCI-60 one-dose screen, 48 h
condition notes: 10 µM unless noted
Compounds without any hit were thinned out: in the full panel of roughly 83,000, 20% have a hit. Calls of active or inactive are those of the source. Rule for the calls: active = growth percent below 10; inactive = the rest.
I would appreciate it if you answered using one of these outcomes: Y for active, N for inactive

INPUT: // outcome(item) with item = `CCOC(=O)c1ccc(NC(=O)CSC(N)=O)cc1`
OUTPUT: N

INPUT: Let us now turn to `Cc1ccc(C)c(NC(=O)c2sc3c(=O)[nH]cnc3c2C)c1`
OUTPUT: N

INPUT: Let us now turn to `c1ccc2c(N=NSc3ncnc4nc[nH]c34)c3ccccc3nc2c1`
OUTPUT: Y

INPUT: Let us now turn to `C=C1C(=O)O[C@H]2[C@H]1CC/C(COC(=O)N[C@@H](Cc1c[nH]c3ccccc13)C(=O)OC)=C\CC[C@@]1(C)O[C@@H]21`
OUTPUT: Y

INPUT: Let us now turn to `C(=Nc1ccc(-c2ccc(N=Cc3ccccc3)cc2)cc1)c1ccccc1`
OUTPUT: N

INPUT: Let us now turn to `COc1cc2c(=O)n(CCCN(C)C)c3c4cc[nH]c4ncc3c2cc1OC`
OUTPUT: N

INPUT: Let us now turn to COc1ccc2c(c1)OC1=C(C(=O)OC1)C2c1cc(OC)c2c(c1)OCCO2 (stereo not given)
OUTPUT: N

INPUT: Let us now turn to `CCCCCCCCN=C(NCCCCCCCC)SCc1cccc2ccccc12`
OUTPUT: Y

INPUT: Let us now turn to `CCCCCCCCCCCCCCCCCC(=O)[O][Sn]([CH2]CCC)([CH2]CCC)[CH2]CCC`
OUTPUT: Y

INPUT: Let us now turn to `N/C(=C\C(=O)n1nc(-c2ccccc2)cc1N)c1ccccc1`
OUTPUT: N

INPUT: Let us now turn to `CCS(=O)(=O)Nc1cccc(Nc2c3cccc(C)c3nc3c(C)cccc23)c1OC`
OUTPUT: N

INPUT: Let us now turn to CC(C)=CC[C@@H]1CC2(CC=C(C)C)C(=O)C(OC3(C(=O)c4ccccc4)C(=O)C4(CC=C(C)C)C[C@@H](CC=C(C)C)C(C)(C)C(CC=C(C)C)(C4=O)C3=O)(C(=O)c3ccccc3)C(=O)C(CC=C(C)C)(C2=O)C1(C)C (stereo not given in full)
OUTPUT: Y

INPUT: Let us now turn to `COc1cnc2c(c1)C(=O)c1c-2n(CCCNC(C)C)c(=O)c2cc(Cl)ccc12`
OUTPUT: Y

INPUT: Let us now turn to `COc1ccccc1-[n+]1cc(-c2ccc(-c3ccccc3)cc2)n2c1CCCCC2`
OUTPUT: Y

INPUT: Let us now turn to CN1C(=O)N(C)C2C1NN=c1s/c(=C\c3ccsc3)c(=O)n12 (stereo not given)
OUTPUT: N

INPUT: Let us now turn to COc1cc(C2CC(c3cccc(Nc4ccnc5cc(Cl)ccc45)c3)=NN2C=O)cc(OC)c1OC (stereo not given)
OUTPUT: N

INPUT: Let us now turn to `CS(=O)(=O)c1ccc(C(=O)N/N=C/c2ccc3c(c2)OCO3)cc1`
OUTPUT: N

INPUT: Let us now turn to COc1cccc(C2C(C#N)=C(N)Oc3cc4c(cc32)OCO4)c1 (stereo not given)
OUTPUT: N

INPUT: Let us now turn to `O=P(O)(O)C(O)(Cc1cccnc1)P(=O)(O)O`
OUTPUT: N

INPUT: Let us now turn to CC(C)c1ccc2c(c1)CCC1C2CCCC1(C)NCc1ccccc1 (stereo not given)
OUTPUT: Y

INPUT: Let us now turn to `CC(=O)c1ccc(N2C(=O)c3ccc(Oc4ccccc4)cc3C2=O)cc1`
OUTPUT: N

INPUT: Let us now turn to `O=[N+]([O-])c1ccc(Sc2nc(Cl)nc(NC3CCCC3)n2)cc1`
OUTPUT: Y

INPUT: Let us now turn to `CC(C)CCSc1nc(-c2ccc(F)cc2)c(C#N)c(N2CCN(C)CC2)n1`
OUTPUT: N

INPUT: Let us now turn to `Cc1cccc2nc3ccccc3c(Nc3ccc(NS(C)(=O)=O)cc3)c12`
OUTPUT: N

INPUT: Let us now turn to CC(=O)NC1C(O[C@H]2C[C@H]3[C@@H]4CC=C5C[C@@H](O)CC[C@]5(C)[C@H]4CC[C@]3(C)[C@H]2[C@H](C)C(=O)CCC(C)C)OCC(O)C1O (stereo not given in full)
OUTPUT: Y

INPUT: Let us now turn to `Cn1c(=O)c2c(nc(N/N=C/c3ccccc3Cl)n2C)n(C)c1=O`
OUTPUT: N

INPUT: Let us now turn to `CCOC(=O)Nc1ccc2nc(N3CCCCCC3)sc2c1`
OUTPUT: N

INPUT: Let us now turn to `COc1ccc(/C(C)=N/NC(=O)c2ccc(S(C)(=O)=O)cc2)cc1OC`
OUTPUT: N

INPUT: Let us now turn to CCN1C(=O)/C(=C/N2N=C(c3ccc(Cl)cc3)CC2c2ccc(OC)cc2)SC1=S (stereo not given)
OUTPUT: N

INPUT: Let us now turn to COc1cc(C2CC(c3ccccc3)=NN2C=O)ccc1Oc1nc2c(c(=O)n(C)c(=O)n2C)n1C (stereo not given)
OUTPUT: N

INPUT: Let us now turn to `CCCCCCCCN(CCCCCCCC)C(=O)CCl`
OUTPUT: N

INPUT: Let us now turn to `O=C(CCl)N1c2ccccc2Oc2ccc3ccccc3c21`
OUTPUT: Y

INPUT: Let us now turn to `O=C(CSc1nc2c(n1Nc1ccccc1)-c1ccccc1SC2)Nc1nccs1`
OUTPUT: N

INPUT: Let us now turn to `NNC(=O)CSc1nc2scc(-c3ccccc3)c2c(=O)n1-c1ccccc1`
OUTPUT: N

INPUT: Let us now turn to `COc1ccc(N=C2CSc3nnc(-c4cc(F)c(Cl)cc4Cl)n3N2)cc1`
OUTPUT: Y

INPUT: Let us now turn to `CCCCCc1c(C)[nH]c(/C=C2\N=C(c3ccc[nH]3)C=C2Oc2ccc(OC)cc2)c1C`
OUTPUT: Y

INPUT: Let us now turn to `COc1cc(OC)cc(-c2ccc(-c3ccc(C(=N)N)s3)s2)c1`
OUTPUT: Y

INPUT: Let us now turn to `Cc1ccc([C@H]2c3[nH]c4ccccc4c3C[C@H]3C(=O)N(CCCCCCC(=O)NO)CC(=O)N23)cc1`
OUTPUT: Y

INPUT: Let us now turn to COc1cc(C2CC(c3ccc(C)cc3)=NN2C=O)ccc1Oc1ccnc2cc(Cl)ccc12 (stereo not given)
OUTPUT: N

INPUT: Let us now turn to `CCNCCCn1c2c(c3ccc(Cl)cc3c1=O)C(=O)c1cc(OC)cnc1-2`
OUTPUT: Y

* * *

System: HCT-15 colon
test method notes: NCI-60 one-dose screen, 48 h
condition notes: 10 µM unless noted
Experimental: Growth inhibition of the HCT-15 human tumor cell line is measured as a screen for anti-cancer activity. Cells are grown in 96 well plates and exposed to the test compound for 48 hours. Compounds are tested at a single concentration, which is 10^-5 M for most compounds. The reported endpoint is percent growth (GI% or GIPRCNT), where numbers from 0 - 100% represent growth inhibition, and numbers from -100% - 0 represent cell death. For example, a value of 40 represents 60% growth inhibition. […]
This is part of a sample that, as a whole, favours compounds with a hit. Of some 83,000 tested, about 20% had one in any assay. The source made the active and inactive calls. How the source made its calls: active means growth percent below 10; inactive means the rest.
I would appreciate it if you answered using one of these outcomes: active, inactive

INPUT: // outcome(item) with item = COc1cc(NCC(O)CN(CC(C)C)CC(C)C)c2ncccc2c1 (stereo not given)
OUTPUT: inactive

INPUT: Let us now turn to `Fc1ccc(-c2cnc3nonc3n2)c(F)c1`
OUTPUT: inactive

INPUT: Let us now turn to COc1cc(C2CC(c3ccc(Cl)cc3)=NN2C(C)=O)ccc1Oc1ccnc2cc(Cl)ccc12 (stereo not given)
OUTPUT: inactive

INPUT: Let us now turn to CC(NC(=O)c1ccccc1)C(=O)Nc1ccccc1 (stereo not given)
OUTPUT: inactive

INPUT: Let us now turn to `Cn1cnc([N+](=O)[O-])c1S(=O)(=O)Oc1ccccc1`
OUTPUT: inactive

INPUT: Let us now turn to CCN1C(=O)N(CC)C2C1N=C(SC)N2/N=C/C=C/c1ccccc1OC (stereo not given)
OUTPUT: active

INPUT: Let us now turn to `COc1cc(OC)c(C(=O)/C=C/c2cccc(OC(C)=O)c2)cc1CC=C(C)C`
OUTPUT: inactive

INPUT: Let us now turn to `COc1ccc(-n2nc(C(=O)Nc3ccc(F)cc3)nc2-c2cc(OC)c(OC)c(OC)c2)cc1`
OUTPUT: inactive

INPUT: Let us now turn to `C=C(C)[C@@H]1CC[C@]2(C(=O)O)CC[C@]3(C)[C@H](CC[C@@H]4[C@@]5(C)C[C@@H](CC#Cc6ccc(C(C)=O)s6)[C@H](O)C(C)(C)[C@@H]5CC[C@]43C)[C@@H]12`
OUTPUT: inactive

INPUT: Let us now turn to `COC(=O)CSc1ccc(Cl)cc1`
OUTPUT: inactive
